Reference for the values: PubChem BioAssay (NCI)

# Test system: TK-10 renal
# EXPERIMENT DESCRIPTION: NCI tumour cell line growth inhibition, 48 h
Entries and their TGI

{"COMPOUND": "CCCc1cc(O)c2c3c(c(=O)oc2c1)CN(C)CC3", "TGI": "> 100 µM"}
{"COMPOUND": "Nc1nc(N)c(Cn2ccnc2)c(=O)[nH]1", "TGI": "> 100 µM"}
{"COMPOUND": "S=c1nc(Cc2ccc(Cl)cc2)[nH][nH]1", "TGI": "> 100 µM"}
{"COMPOUND": "CS(=O)(=O)OC1CN2CCC1CC2 (stereo not given)", "TGI": "> 100 µM"}
{"COMPOUND": "CN(CCCCCl)P(=O)(OCc1ccc([N+](=O)[O-])o1)OCC1OC(n2ccc(N)nc2=O)C(F)(F)C1O (stereo not given)", "TGI": "> 82.7 µM"}
